System: SiHa
experimental-details: Cytotoxicity against human SiHa cells after 72 hrs by MTT assay
Assay type: functional, cell-based
assay-metric: pIC50
// returns pIC50 (minus log10 of molar concentration), number only

CC(C)Cn1sc2ccccc2c1=O = 4.42
C[C@@H](c1ccccc1)n1sc2ccccc2c1=O = 4.44
C[C@H](c1ccccc1)n1sc2ccccc2c1=O = 4.49

Query: Could you tell me which pIC50 is on file for `O=c1c2ccccc2sn1Cc1ccc2c(c1)OCO2` ?
Response: 4.53

Query: Could you tell me which pIC50 is on file for `O=c1c2ccccc2sn1C1CCCCC1` ?
Response: 4.32
